FYI, the data here is from ChEMBL document CHEMBL1122648.

Target protein (sequence): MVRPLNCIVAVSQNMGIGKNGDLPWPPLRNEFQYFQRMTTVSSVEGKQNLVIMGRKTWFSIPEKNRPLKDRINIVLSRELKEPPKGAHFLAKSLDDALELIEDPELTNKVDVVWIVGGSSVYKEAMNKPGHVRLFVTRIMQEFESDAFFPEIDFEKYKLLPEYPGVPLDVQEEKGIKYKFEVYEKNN
ASSAY_READOUT: pIC50
Please keep in mind that pIC50 is minus log10 of the molar concentration; only the number is needed.

Name the reported pIC50 value associated with the molecule CCCCOC(=O)C(CCC(=O)O)NC(=O)c1ccc(N(C)Cc2cnc3nc(N)nc(N)c3n2)cc1 (stereo unspecified)
7.25

Cool, now CCCCCCCCCCCCCCCCOC(=O)C(CCC(=O)O)NC(=O)c1ccc(N(C)Cc2cnc3nc(N)nc(N)c3n2)cc1 (stereo unspecified)
5.92

Note, next up: CCCCCCCCCCCCOC(=O)CCC(NC(=O)c1ccc(N(C)Cc2cnc3nc(N)nc(N)c3n2)cc1)C(=O)O (stereo unspecified)
7.47

Cool, now CCCCCCCCCCCCOC(=O)C(CCC(=O)O)NC(=O)c1ccc(N(C)Cc2cnc3nc(N)nc(N)c3n2)cc1 (stereo unspecified)
6.36

Now the molecule CCCCCCCCOC(=O)C(CCC(=O)O)NC(=O)c1ccc(N(C)Cc2cnc3nc(N)nc(N)c3n2)cc1 (stereo unspecified)
6.44

Param item: CCCCCCCCOC(=O)CCC(NC(=O)c1ccc(N(C)Cc2cnc3nc(N)nc(N)c3n2)cc1)C(=O)O (stereo unspecified)
8.27
